- Study Target: VLA-4 (Homo sapiens, UniProt P05556+P13612)
- Construct: endogenous in cells
- Sequence (P13612 34-1032): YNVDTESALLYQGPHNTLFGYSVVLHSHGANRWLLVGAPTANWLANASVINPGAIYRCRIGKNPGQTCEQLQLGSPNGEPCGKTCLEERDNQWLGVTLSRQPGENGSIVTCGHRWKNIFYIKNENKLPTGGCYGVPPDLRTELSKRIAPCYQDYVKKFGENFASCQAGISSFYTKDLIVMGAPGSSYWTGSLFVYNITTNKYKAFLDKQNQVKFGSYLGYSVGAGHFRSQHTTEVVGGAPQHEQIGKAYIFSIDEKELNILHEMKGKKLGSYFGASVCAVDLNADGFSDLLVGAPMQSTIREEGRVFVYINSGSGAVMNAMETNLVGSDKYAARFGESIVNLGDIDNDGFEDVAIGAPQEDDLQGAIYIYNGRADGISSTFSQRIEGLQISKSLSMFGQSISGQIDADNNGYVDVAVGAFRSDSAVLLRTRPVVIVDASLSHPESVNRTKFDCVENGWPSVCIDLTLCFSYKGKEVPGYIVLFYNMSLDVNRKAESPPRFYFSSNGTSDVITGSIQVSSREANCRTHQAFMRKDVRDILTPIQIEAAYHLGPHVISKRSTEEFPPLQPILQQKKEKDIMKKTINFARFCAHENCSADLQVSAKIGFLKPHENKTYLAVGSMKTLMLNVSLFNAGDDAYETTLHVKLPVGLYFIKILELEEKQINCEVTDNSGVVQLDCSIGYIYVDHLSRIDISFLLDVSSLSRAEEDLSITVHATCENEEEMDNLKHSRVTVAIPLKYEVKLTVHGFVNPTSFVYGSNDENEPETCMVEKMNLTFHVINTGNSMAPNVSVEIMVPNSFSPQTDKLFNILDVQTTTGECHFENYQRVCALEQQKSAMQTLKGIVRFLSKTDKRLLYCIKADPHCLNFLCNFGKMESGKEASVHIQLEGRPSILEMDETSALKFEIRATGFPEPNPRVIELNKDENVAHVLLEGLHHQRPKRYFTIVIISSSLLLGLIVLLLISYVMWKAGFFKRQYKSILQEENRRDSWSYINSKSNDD
- Sequence (P05556 21-798): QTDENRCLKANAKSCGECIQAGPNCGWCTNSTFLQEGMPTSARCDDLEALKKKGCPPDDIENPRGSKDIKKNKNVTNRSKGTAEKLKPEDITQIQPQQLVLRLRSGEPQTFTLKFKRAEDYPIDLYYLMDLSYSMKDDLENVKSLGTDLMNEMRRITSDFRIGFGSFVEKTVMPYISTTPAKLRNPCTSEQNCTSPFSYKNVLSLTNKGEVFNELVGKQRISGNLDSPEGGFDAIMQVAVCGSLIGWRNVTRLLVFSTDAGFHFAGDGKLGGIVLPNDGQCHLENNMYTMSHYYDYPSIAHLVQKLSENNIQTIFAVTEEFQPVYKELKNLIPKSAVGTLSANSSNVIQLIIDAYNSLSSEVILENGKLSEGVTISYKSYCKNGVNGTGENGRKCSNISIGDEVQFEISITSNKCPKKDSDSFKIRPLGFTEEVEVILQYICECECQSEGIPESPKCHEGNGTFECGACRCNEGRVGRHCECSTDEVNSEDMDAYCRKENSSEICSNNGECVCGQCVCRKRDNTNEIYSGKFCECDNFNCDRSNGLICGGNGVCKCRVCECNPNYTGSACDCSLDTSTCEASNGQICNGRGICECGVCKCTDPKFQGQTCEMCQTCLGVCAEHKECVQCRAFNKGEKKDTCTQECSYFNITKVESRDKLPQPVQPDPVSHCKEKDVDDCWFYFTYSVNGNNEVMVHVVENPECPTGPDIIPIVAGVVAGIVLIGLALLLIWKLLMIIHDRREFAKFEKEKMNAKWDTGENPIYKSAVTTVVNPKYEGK
- Procedure Details: VLA-4 direct binding assay (VCAM-IgG alkaline phosphatase conjugate binding to Jurkat cells)
- Condition Set: Table 1, Structure-Activity; assay and unit inferred; read-out: Act
Assay Readout: IC50

>>> print(df.to_string())
                                    compound  assay_readout  observed_measurement
 0  CC1=NN(c2ccc(C(=O)Nc3ccc4c(c3)C(=O)N(CCC(=O)O)CC(=O)N4C)cc2)C(=O)C1 [BX13]           IC50               5860 nM
 1  Cc1ccccc1NC(=O)Nc1ccc(CC(=O)Nc2cccc(OCCCC(=O)O)c2)cc1 [RX23]           IC50                144 nM
 2  COc1ccc([C@H](CC(=O)O)NC(=O)C(N)CC(=O)Nc2ccc(NC(=O)Nc3ccccc3C)cc2)cc1OC (stereo partly shown) [SX19]           IC50               1940 nM
 3  Cc1ccccc1NC(=O)Nc1ccc(CC(=O)Nc2ccc(C)c(OCCCC(=O)O)c2)cc1 [RX24]           IC50                855 nM
 4  Cc1ccccc1NC(=O)Nc1ccc(CNC(=O)c2ccc3c(c2)CN(C)C(=O)C(CC(=O)O)N3)cc1 (stereo not shown) [BX18]           IC50               4430 nM
 5  COC(=O)CCCOc1cc(NC(=O)Cc2ccc(NC(=O)Nc3ccccc3C)cc2)cc(OCCCC(=O)O)c1 [RX22]           IC50                157 nM
 6  Cc1ccccc1NC(=O)Nc1ccc(NC(=O)[C@@H]2CSCN2C(=O)CN(CCC(=O)O)C(=O)c2ccccc2)cc1 [AX39]           IC50                 60 nM
 7  COCCN1CC(=O)N(CCC(=O)O)Cc2cc(NC(=O)Cc3ccc(NC(=O)Nc4ccccc4C)cc3)ccc21 [BX61]           IC50               99.3 nM
 8  COc1ccc(C(CC(=O)O)NC(=O)[C@@H](CC(=O)Nc2ccc(COc3ccccc3C)cc2)CC(C)C)cc1OC (stereo partly shown) [SX31]           IC50                680 nM
 9  Cc1ccccc1NC(=O)Nc1ccc(NC(=O)C2CCCN2C(=O)CCCCC(=O)O)cc1 (stereo not shown) [CX1]           IC50               1350 nM
10  CCC(CC(=O)O)N1CC(=O)N(C)c2ccc(NC(=O)Cc3ccc(NC(=O)Nc4ccccc4C)cc3)cc2C1=O (stereo not shown) [BX60]           IC50                103 nM
11  CN1Cc2ccc(NC(=O)Cc3ccc(NC(=O)Nc4ccccc4Br)cc3)cc2CN(CC(=O)O)C1=O [BX65]           IC50                 65 nM
12  COCCCN1CC(=O)N(CCC(=O)O)Cc2cc(NC(=O)Cc3ccc(NC(=O)Nc4ccccc4C)cc3)ccc21 [BX70]           IC50               30.5 nM
13  Cc1ccccc1NC(=O)Nc1ccc(NC(=O)[C@@H]2CCCN2C(=O)CCCC(=O)O)cc1 [CX8]           IC50                480 nM
14  COc1ccc(C(CC(=O)O)NC(=O)C(CC(=O)Nc2ccc(NC(=O)Nc3ccccc3C)cc2)CC(C)C)cc1 (stereo not shown) [SX13]           IC50               3490 nM
15  COc1ccc([C@H](CC(=O)O)NC(=O)C(C)CC(=O)Nc2ccc(NC(=O)Nc3ccccc3)cc2)cc1OC (stereo partly shown) [SX53]           IC50                 65 nM
16  CCC(C)N1C(=O)CN(CCC(=O)O)C(=O)c2cc(NC(=O)Cc3ccc(NC(=O)Nc4ccccc4C)cc3)ccc21 (stereo not shown) [BX49]           IC50                163 nM
17  CCOc1cc(NC(=O)Cc2ccc(NC(=O)Nc3ccccc3C)cc2)cc(OCCCC(=O)O)c1 [RX27]           IC50                 50 nM
18  Cc1ccccc1NC(=O)Nc1ccc(NC(=O)[C@@H]2CCCN2C(=O)NCCC(=O)O)cc1 [CX7]           IC50                190 nM
19  Cc1ccccc1NC(=O)Nc1ccc(N(C)C(=O)CCC(=O)N[C@H](C)CC(=O)O)cc1 [SX48]           IC50                195 nM
20  Cc1ccccc1NC(=O)Nc1ccc(CC(=O)Nc2ccc3c(c2)CN(CCC(=O)O)C(=O)CN3CCN2CCOCC2)cc1 [BX69]           IC50               31.5 nM
21  COc1cccc(C(=O)N(CCC(=O)O)CC(=O)N(CCC(C)C)CC(=O)Nc2ccc(CC(=O)N3CCc4ccccc43)cc2)c1 [AX21]           IC50                761 nM
22  Cc1ccccc1NC(=O)Nc1ccc(CC(=O)Nc2cc(OCCCC(=O)O)cc(OCCC(C)C)c2)cc1 [RX16]           IC50                574 nM
23  COc1ccc(C(=O)N(CCC(=O)O)CC(=O)N(CCC(C)C)CC(=O)Nc2ccccc2)cc1 [AX7]           IC50              11500 nM
24  CN1C(=O)CN(CCC(=O)O)C(=O)c2cc(NC(=O)Cc3ccc(NC(=O)Cc4c[nH]c5ccccc45)cc3)ccc21 [BX11]           IC50               9050 nM
25  Cc1ccccc1NC(=O)Nc1ccc(NC(=O)[C@@H]2CCCN2C(=O)CC(C)CC(=O)O)cc1 (stereo partly shown) [CX10]           IC50                258 nM
26  CSCCCN(CC(=O)Nc1ccc(NC(=O)Nc2ccccc2)cc1)C(=O)CN(CCC(=O)O)C(=O)c1ccccc1 [AX27]           IC50                200 nM
27  COc1ccc([C@H](CC(=O)O)NC(=O)C(CC(=O)Nc2ccc(C(N)=O)cc2)CC(C)C)cc1OC (stereo partly shown) [SX15]           IC50               3000 nM
28  Cc1ccccc1NC(=O)Nc1ccc(CC(=O)Nc2ccc3c(c2)C(=O)N(CCC(=O)O)C(C)C(=O)N3C)cc1 (stereo not shown) [BX38]           IC50                550 nM
29  CC(=O)N(CCCC(=O)O)Cc1cccc(NC(=O)Cc2ccc(NC(=O)Nc3ccccc3C)cc2)c1 [RX20]           IC50                250 nM
30  COc1ccc(C(CC(=O)O)NC(=O)C(CC(=O)Nc2ccc(CCSc3ccccc3C)cc2)CC(C)C)cc1OC (stereo not shown) [SX32]           IC50                660 nM

// data source = patent US6686350B1
